Tested on: Nucleic Acid
protocol: Binding affinity to Escherichia coli JM83 pUC19 DNA assessed as DNA intercalation assay
Assay type: nucleic-acid assay
assayEndpoint: SC50 (µM)

Example entries begin here.
1) COc1ccc2nc3cc(Cl)ccc3c(NCCCN(CCCNc3c4ccc(Cl)cc4nc4ccc(OC)cc34)Cc3ccccc3OC)c2c1 2
2) COc1ccc2nc3cc(Cl)ccc3c(NCCCN(CCCNc3c4ccc(Cl)cc4nc4ccc(OC)cc34)Cc3cccc(OC)c3OC)c2c1 2
3) COc1ccc2nc3cc(Cl)ccc3c(NCCCN(CCCNc3c4ccc(Cl)cc4nc4ccc(OC)cc34)Cc3sccc3C)c2c1 2

P = COc1cccc(CN(CCCNc2c3ccc(Cl)cc3nc3ccc(OC)cc23)CCCNc2c3ccc(Cl)cc3nc3ccc(OC)cc23)c1
Q = COc1ccc2nc3cc(Cl)ccc3c(NCCCCNCCCNc3c4ccc(Cl)cc4nc4ccc(OC)cc34)c2c1
R = COc1cccc2c1C(=O)c1c(O)c3c(c(O)c1C2=O)C[C@@](O)(C(=O)CO)C[C@@H]3O[C@H]1C[C@H](N)[C@H](O)[C@H](C)O1
In: Output the entries ranked by SC50 from maximum down to minimum. Respond with an ordered listing of the labels, as requested.
Out: R, Q, P
